assay target: Proto-oncogene tyrosine-protein kinase receptor Ret (Homo sapiens) (UniProt P07949)
Sequence (P07949 whole entry): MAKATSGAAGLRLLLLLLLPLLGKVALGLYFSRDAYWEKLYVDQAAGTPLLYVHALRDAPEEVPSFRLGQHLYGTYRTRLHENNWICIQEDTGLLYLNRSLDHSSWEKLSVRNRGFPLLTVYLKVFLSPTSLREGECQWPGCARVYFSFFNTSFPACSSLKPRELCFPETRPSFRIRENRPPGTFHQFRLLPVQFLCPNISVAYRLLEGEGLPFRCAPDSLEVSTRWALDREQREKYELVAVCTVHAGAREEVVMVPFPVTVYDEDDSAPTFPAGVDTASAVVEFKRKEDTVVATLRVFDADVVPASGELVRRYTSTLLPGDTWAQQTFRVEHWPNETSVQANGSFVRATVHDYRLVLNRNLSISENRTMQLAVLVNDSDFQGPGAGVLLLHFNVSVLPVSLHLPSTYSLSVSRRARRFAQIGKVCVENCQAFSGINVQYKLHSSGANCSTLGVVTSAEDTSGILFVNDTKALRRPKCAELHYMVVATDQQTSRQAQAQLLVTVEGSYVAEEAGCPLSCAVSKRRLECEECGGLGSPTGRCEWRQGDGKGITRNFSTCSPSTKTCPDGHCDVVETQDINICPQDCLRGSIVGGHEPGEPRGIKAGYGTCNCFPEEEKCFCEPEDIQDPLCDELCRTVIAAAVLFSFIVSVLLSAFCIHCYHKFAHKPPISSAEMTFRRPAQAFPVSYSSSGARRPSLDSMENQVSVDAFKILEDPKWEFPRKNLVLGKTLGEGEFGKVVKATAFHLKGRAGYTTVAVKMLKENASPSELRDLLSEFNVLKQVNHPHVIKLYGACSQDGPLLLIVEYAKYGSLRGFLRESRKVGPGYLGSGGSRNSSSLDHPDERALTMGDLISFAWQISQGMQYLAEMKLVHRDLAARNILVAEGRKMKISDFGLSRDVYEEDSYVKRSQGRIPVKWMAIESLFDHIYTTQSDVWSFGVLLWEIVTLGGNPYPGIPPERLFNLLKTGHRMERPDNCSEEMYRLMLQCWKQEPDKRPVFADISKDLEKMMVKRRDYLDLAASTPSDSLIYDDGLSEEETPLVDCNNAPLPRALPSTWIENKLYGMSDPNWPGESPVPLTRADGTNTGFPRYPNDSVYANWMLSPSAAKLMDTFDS
condition description: at 1 µM
For each of the compounds below, state its inhibition.
Provide the reading as a plain figure in %.

Form field: inhibition recorded for "N#Cc1cccc(Nc2nccc(-c3cnn4ncccc34)n2)c1" with Proto-oncogene tyrosine-protein kinase receptor Ret (Homo sapiens) (UniProt P07949) (enter value)
37.4

Enter reported inhibition observed with Proto-oncogene tyrosine-protein kinase receptor Ret (Homo sapiens) (UniProt P07949) for CCCN1CCCC(c2ccc(Nc3nc(Nc4cc(F)ccc4C(N)=O)c4cc[nH]c4n3)c(OC)c2)C1 (stereo not drawn)
20.9

API: value(readout=inhibition, system=Proto-oncogene tyrosine-protein kinase receptor Ret (Homo sapiens) (UniProt P07949)) for record "Cc1ccc(Nc2ccnc(Nc3cccc(C(N)=O)c3)n2)cc1O"
85.7

Hi! What's the reported inhibition for "c1ccc(Cc2nc3ccc(Nc4ncnc5ccccc45)cc3[nH]2)cc1" on Proto-oncogene tyrosine-protein kinase receptor Ret (Homo sapiens) (UniProt P07949)?
9.44

For Proto-oncogene tyrosine-protein kinase receptor Ret (Homo sapiens) (UniProt P07949), provide inhibition of "Cc1ccc(NC(=O)CC2CC2)cc1-c1ccc(C(=O)NCC2CC2)cc1" please.
9.25

Given the entry "CN(C)c1cc2c(Nc3ccc4c(cnn4Cc4ccccc4)c3)ncnc2cn1" , what inhibition was observed with Proto-oncogene tyrosine-protein kinase receptor Ret (Homo sapiens) (UniProt P07949)?
13.6

Which inhibition is reported with Proto-oncogene tyrosine-protein kinase receptor Ret (Homo sapiens) (UniProt P07949) for this entry: "COc1cc2ncn(-c3cc(OCc4ccccc4S(C)(=O)=O)c(C#N)s3)c2cc1OC" ?
63.7

// map "CN(C)C(=O)O[C@H]1CN[C@H](C#Cc2cc3ncnc(Nc4ccc(OCc5cccc(F)c5)c(Cl)c4)c3s2)C1" to recorded inhibition (system: Proto-oncogene tyrosine-protein kinase receptor Ret (Homo sapiens) (UniProt P07949));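 further: each listed value is an averaged inhibition figure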
19.5

###

Task for the reader: assign each of the following molecules its reported inhibition.
assay target: Serine/threonine-protein kinase 10 (Homo sapiens) (UniProt O94804)
Sequence (O94804 whole entry, looked up): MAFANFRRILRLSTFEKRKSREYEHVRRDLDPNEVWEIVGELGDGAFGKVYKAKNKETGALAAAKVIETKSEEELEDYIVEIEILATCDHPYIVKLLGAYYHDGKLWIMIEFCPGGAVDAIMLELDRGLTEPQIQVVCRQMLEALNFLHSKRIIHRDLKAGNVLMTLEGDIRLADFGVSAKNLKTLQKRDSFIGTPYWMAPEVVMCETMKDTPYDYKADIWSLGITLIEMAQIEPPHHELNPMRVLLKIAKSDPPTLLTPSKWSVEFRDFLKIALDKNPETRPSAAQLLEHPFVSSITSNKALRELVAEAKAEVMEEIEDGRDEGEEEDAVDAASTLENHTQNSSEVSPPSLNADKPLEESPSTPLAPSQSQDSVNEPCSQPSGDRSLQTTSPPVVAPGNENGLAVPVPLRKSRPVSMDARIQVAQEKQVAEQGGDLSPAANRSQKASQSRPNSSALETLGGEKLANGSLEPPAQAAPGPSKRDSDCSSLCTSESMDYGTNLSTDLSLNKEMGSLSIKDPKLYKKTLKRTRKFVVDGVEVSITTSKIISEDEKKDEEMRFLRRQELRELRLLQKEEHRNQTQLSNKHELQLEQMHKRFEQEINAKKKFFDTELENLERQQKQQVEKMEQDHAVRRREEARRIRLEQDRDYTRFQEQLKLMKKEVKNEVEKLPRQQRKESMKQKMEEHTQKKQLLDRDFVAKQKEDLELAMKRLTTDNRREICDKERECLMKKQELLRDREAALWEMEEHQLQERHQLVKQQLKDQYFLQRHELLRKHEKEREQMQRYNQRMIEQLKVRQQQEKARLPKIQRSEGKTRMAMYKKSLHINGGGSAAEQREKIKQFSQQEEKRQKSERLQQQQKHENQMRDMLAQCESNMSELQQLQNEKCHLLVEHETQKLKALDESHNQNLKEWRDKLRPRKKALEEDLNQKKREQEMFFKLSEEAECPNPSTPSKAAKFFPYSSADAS
condition description: at 0.1 µM
// return numeric value only (unit: %, not printed)

Param readout= inhibition; system= Serine/threonine-protein kinase 10 (Homo sapiens) (UniProt O94804); entry= "COC(=O)c1ccc2c(c1)C(=Cc1cc(Br)c(O)c(Br)c1)C(=O)N2" ; returns value.
6.1

Please provide the recorded inhibition for "NS(=O)(=O)c1ccc(NC=C2C(=O)Nc3ccc4ncsc4c32)cc1" , tested on Serine/threonine-protein kinase 10 (Homo sapiens) (UniProt O94804).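 Further: mean percent inhibition of LOK (STK10).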
6.33

Fill in the recorded inhibition for this molecule, with Serine/threonine-protein kinase 10 (Homo sapiens) (UniProt O94804) as test system: "Oc1cccc(-c2nc(-c3ccccc3)[nH]c2-c2ccncc2)c1"
4.37

###

assay target: Serine/threonine-protein kinase Nek2 (Homo sapiens)
condition description: at 1 µM
Exercise: state measured inhibition for each of the compounds provided.
State the value with its unit after it.

Under Serine/threonine-protein kinase Nek2 (Homo sapiens): inhibition value of "N#Cc1c(NC(=O)c2ccccc2F)sc2c1CCCC2" ?
3.25%

Could you share what inhibition was measured for "COC(=O)Nc1nc2cc(Oc3ccc(NC(=O)Nc4cccc(Br)c4)cc3)ccc2[nH]1" , tested on Serine/threonine-protein kinase Nek2 (Homo sapiens)?;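 further: reported values are mean percent inhibition of NEK2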
2.81%

Return inhibition measured with Serine/threonine-protein kinase Nek2 (Homo sapiens) given this compound: "NS(=O)(=O)c1ccc(N/N=C2\C(=O)Nc3ccc(Cl)cc32)cc1"
4.1%

Field: inhibition (Serine/threonine-protein kinase Nek2 (Homo sapiens)). Entry: "O=C1Nc2ccccc2/C1=C/Nc1ccc2[nH]c(=O)[nH]c2c1"
5.56%

What measured inhibition is associated with "C[C@@H](Oc1cc(-n2cnc3ccc(OCC4CCN(C)CC4)cc32)sc1C(N)=O)c1ccccc1C(F)(F)F" on Serine/threonine-protein kinase Nek2 (Homo sapiens)?
69.2%
